target: Tyrosine-protein kinase Fes/Fps (Homo sapiens) (UniProt P07332); conditions: at 1 µM;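 further: mean inhibition of FES from the GSK PKIS kinase inhibitor screening set, assayed by Nanosyn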
Sequence (P07332 whole entry): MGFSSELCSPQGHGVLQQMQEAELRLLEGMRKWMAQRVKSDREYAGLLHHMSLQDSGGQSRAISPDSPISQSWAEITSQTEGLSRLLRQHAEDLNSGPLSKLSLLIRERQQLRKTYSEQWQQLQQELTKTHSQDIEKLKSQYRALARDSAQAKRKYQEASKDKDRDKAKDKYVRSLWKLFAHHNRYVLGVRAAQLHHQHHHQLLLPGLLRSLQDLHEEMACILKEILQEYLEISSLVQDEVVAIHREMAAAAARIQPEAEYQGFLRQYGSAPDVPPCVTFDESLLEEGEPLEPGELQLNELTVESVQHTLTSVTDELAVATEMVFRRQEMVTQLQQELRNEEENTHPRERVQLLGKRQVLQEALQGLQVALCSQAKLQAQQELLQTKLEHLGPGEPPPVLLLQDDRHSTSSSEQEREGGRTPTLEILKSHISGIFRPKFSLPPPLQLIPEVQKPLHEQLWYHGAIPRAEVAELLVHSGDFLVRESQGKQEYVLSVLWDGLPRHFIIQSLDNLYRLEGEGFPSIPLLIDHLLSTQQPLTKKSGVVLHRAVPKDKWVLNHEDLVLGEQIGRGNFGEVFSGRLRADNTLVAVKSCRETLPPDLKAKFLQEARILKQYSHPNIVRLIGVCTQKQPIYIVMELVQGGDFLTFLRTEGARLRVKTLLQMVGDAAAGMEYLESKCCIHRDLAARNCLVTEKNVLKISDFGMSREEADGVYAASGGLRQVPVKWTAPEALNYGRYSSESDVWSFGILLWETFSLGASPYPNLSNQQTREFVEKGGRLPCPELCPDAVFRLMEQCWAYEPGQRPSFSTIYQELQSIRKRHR
EXPERIMENTAL READOUT: inhibition (%)
Numbers only, in %.

Field: example entries. Status: answers known.
COMPOUND STRUCTURE STRING	MEASURED ON	inhibition, %
NS(=O)(=O)c1ccc(N/N=C2\C(=O)Nc3ccc(Cl)cc32)cc1	Tyrosine-protein kinase Fes/Fps (Homo sapiens) (UniProt P07332)	2.84
O=S(=O)(CCOCc1ccc(-c2ccc3ncnc(Nc4ccc(OCc5cccc(F)c5)c(Cl)c4)c3c2)o1)c1ccccc1	Tyrosine-protein kinase Fes/Fps (Homo sapiens) (UniProt P07332)	1.19
N#Cc1c(NC(=O)c2ccccc2F)sc2c1CCCC2	Tyrosine-protein kinase Fes/Fps (Homo sapiens) (UniProt P07332)	-1.66
COc1ccc2ncnc(Nc3ccc(OCc4ccccc4)cc3)c2c1	Tyrosine-protein kinase Fes/Fps (Homo sapiens) (UniProt P07332)	1.33
CCS(=O)(=O)c1ccc(OC)c(Nc2ncc(-c3cccc(OC)c3)o2)c1	Tyrosine-protein kinase Fes/Fps (Homo sapiens) (UniProt P07332)	2.42
CCn1c(-c2nonc2N)nc2ccc(F)cc21	Tyrosine-protein kinase Fes/Fps (Homo sapiens) (UniProt P07332)	2.83

# batch: return inhibition for each of the 3 molecules below
1. O=C(Nc1ccc(Oc2ccc3[nH]c(NC(=O)c4ccco4)nc3c2)cc1)Nc1cc(C(F)(F)F)ccc1F
2. COc1cc2ncnc(Nc3ccc(C)c(O)c3)c2cc1OC
3. [O-][S+]1CCN(Cc2ccc(-c3ccc4ncnc(Nc5ccc(OCc6ccccc6)c(Cl)c5)c4c3)o2)CC1

[0.11, 3.54, 1.62]

Please supply inhibition for each of the following items, keeping them in order.
1. Oc1cccc(-c2nc(-c3ccccc3)[nH]c2-c2ccncc2)c1
2. Cc1nc(-c2ccccc2)n2nc(NCCCN3CCOCC3)ncc12
3. CC(C)c1ccc2c(c1)NC(=O)/C2=N/Nc1ccc(S(N)(=O)=O)cc1
4. NS(=O)(=O)c1ccc(Nc2cc(-c3cccc(O)c3)n[nH]2)cc1
5. CCS(=O)(=O)c1ccc(OC)c(Nc2nccc(N(C)c3ccc4c(C)n[nH]c4c3)n2)c1

1: 1.64; 2: 3.03; 3: -0.14; 4: 4.45; 5: 6.48

# return inhibition for each item in the list
1. CS(=O)(=O)Nc1cccc(-c2ccc3c(NC(=O)C4CC4)n[nH]c3c2)c1
2. O=C1Nc2ccc(-c3cccnc3)cc2C1=Cc1cc(Br)c(O)c(Br)c1
3. Cc1ccc(NC(=O)CC2CC2)cc1-c1ccc(C(=O)NCC2CC2)cc1
4. NS(=O)(=O)c1cccc(-c2cc3ccncc3cc2OCc2ccccc2)c1
5. COC(=O)c1ccc2c(c1)C(=Cc1cc(Br)c(O)c(Br)c1)C(=O)N2
6. COc1cc2ncnc(Nc3ccc4c(cnn4Cc4ccccc4)c3)c2cc1OC
7. Cc1ccc2c(-c3ccnc(Nc4ccc5c(c4)OCCO5)n3)c(-c3ccc(C(F)(F)F)cc3)nn2n1

1: 1.23; 2: 2.85; 3: 4; 4: 7.11; 5: 4.01; 6: 2; 7: 0.4

Go through the items and report each one's inhibition.
1. COc1cc(/C=N/Nc2ncnc3c2cnn3C(C)C)ccc1O
2. Nc1ccc(C#Cc2cncnc2Nc2ccc(OCc3cccc(F)c3)c(Cl)c2)cc1
3. Cc1ccc(C(=O)NC2CC2)cc1-c1ccc2[nH]ncc2c1
4. CN(C)C(=O)O[C@H]1CN[C@H](C#Cc2cc3ncnc(Nc4ccc(OCc5cccc(F)c5)c(Cl)c4)c3s2)C1
5. CCn1c(-c2nonc2N)nc2c(C#CC(C)(C)O)nc(OCCNC)cc21
6. Cc1cc(-c2ccccn2)cc(C)c1/C=C/c1cncc(-c2nn[nH]n2)c1
7. O=C1Nc2ccccc2/C1=C/Nc1ccc2[nH]c(=O)[nH]c2c1

1. 5.37
2. 2.24
3. -3.34
4. 3.06
5. 4.46
6. 5.62
7. 5.17
